Protocol description: Scavenging activity of nitric oxide (nitrite production induced by SNP, Griess reaction)
Condition notes: 100 μg/mL
Marks after values point to notes of the source that are not given here.
Would you kindly list Nitrite Production (% induced by SNP) for each of these molecules?

Completed entries (count: 5):
O=C(NCCc1ccccc1)c1c(O)cccc1O [Rip-E, 2,6-Dihydroxy-N-phenethylbenzamide]    15.4 ± 1.11 ^a %
O=C(NCCc1ccccc1)c1ccccc1 [Rip-A, N-Phenethylbenzamide]    20.4 ± 1.20 ^a %
COc1ccc(CCNC(=O)c2ccccc2)cc1OC    20.6 ± 0.98 ^a %
COc1ccc(CCNC(=O)c2c(O)cccc2O)cc1OC    17.3 ± 0.22 ^a %
COc1ccc(CCNC(=O)c2ccccc2O)cc1OC    17.3 ± 2.38 ^a %

Input line: Which measured Nitrite Production (% induced by SNP) value corresponds to O=C(NCCc1ccccc1)c1ccccc1O [Rip-C, 2-Hydroxy-N-phenethylbenzamide] ?
Output line: 16.5 ± 1.44 ^a %

====

Protocol description: Scavenging activity of nitric oxide (nitrite production induced by SNP, Griess reaction)
Condition notes: nitrite formation
Labelling field: enter true (1) if recorded IC50 Nitrite is less than 0.8 µg/mL. Enter false (0) if it equals or exceeds that cut-off.

Would you please look over these solved cases?
COc1ccc(CCNC(=O)c2ccccc2O)cc1OC    false (0)
O=C(NCCc1ccccc1)c1ccccc1 [Rip-A, N-Phenethylbenzamide]    false (0)
O=C(NCCc1ccccc1)c1ccccc1O [Rip-C, 2-Hydroxy-N-phenethylbenzamide]    true (1)

Input line: Could you please tell me whether IC50 Nitrite recorded for `COc1ccc(CCNC(=O)c2c(O)cccc2O)cc1OC` is less than 0.8 µg/mL?
Output line: true (1)

Input line: Is 0.8 µg/mL strictly greater than the molecule's reported IC50 Nitrite? molecule: O=C(NCCc1ccccc1)c1c(O)cccc1O [Rip-E, 2,6-Dihydroxy-N-phenethylbenzamide]
Output line: true (1)

====

Reported metric: melting point (°C)
Numbers only, in °C.

# annotated cases, reported melting point shown
COc1ccc(CCNC(=O)c2ccccc2O)cc1OC [Rip-D]    96
COc1ccc(CCNC(=O)c2ccccc2)cc1OC [Rip-B]    90
O=C(NCCc1ccccc1)c1c(O)cccc1O [Rip-E, 2,6-Dihydroxy-N-phenethylbenzamide]    155

Give one value of melting point per listed compound.
1. COc1ccc(CCNC(=O)c2c(O)cccc2O)cc1OC [Rip-F]
2. O=C(NCCc1ccccc1)c1ccccc1O [Rip-C, 2-Hydroxy-N-phenethylbenzamide]

Output line:
167
95

====

Protocol description: Hydroxyl radical scavenging activity (2-deoxyribose degradation, Fenton reaction)
Condition notes: 100 μg/mL
Marks after values point to notes of the source that are not given here.
Reported metric: 2-Deoxyribose degradation (%)

Field: 2-Deoxyribose degradation (%). Fill in for each record below.
1. COc1ccc(CCNC(=O)c2ccccc2)cc1OC [Rip-B]
2. COc1ccc(CCNC(=O)c2c(O)cccc2O)cc1OC [Rip-F]
3. O=C(NCCc1ccccc1)c1ccccc1O [Rip-C, 2-Hydroxy-N-phenethylbenzamide]
4. O=C(NCCc1ccccc1)c1c(O)cccc1O [Rip-E, 2,6-Dihydroxy-N-phenethylbenzamide]
5. O=C(NCCc1ccccc1)c1ccccc1 [Rip-A, N-Phenethylbenzamide]
6. COc1ccc(CCNC(=O)c2ccccc2O)cc1OC [Rip-D]

Output line:
1: 47.2 ± 0.43 ^a %; 2: 50.9 ± 2.33 ^a %; 3: 46.7 ± 0.35 ^a %; 4: 49.4 ± 0.85 ^a %; 5: 44.8 ± 0.30 ^a %; 6: 47.3 ± 0.88 ^a %
